# Tested on: Brain
# test-name: Biodistribution in ddY mouse brain at 2 uCi, iv after 60 mins
# Assay type: ADME, organism-based
# condition-label: in vivo, 1 h
quantity: Drug uptake (% ID/g)

Q: Report value only: Drug uptake, Brain, CN(C)c1ccc(-c2cc(=O)c3cc([125I])ccc3o2)cc1
A: 0.99

I: COc1ccc(-c2cc(=O)c3cc([125I])ccc3o2)cc1
II: O=c1cc(-c2ccc(O)cc2)oc2ccc([125I])cc12
III: CNc1ccc(-c2cc(=O)c3cc([125I])ccc3o2)cc1
Q: rank_up(items): orders items by reported Drug uptake in ascending numerical order. To answer, arrange all of the labels according to the requested order.
A: II, I, III
(II: 0.08 % ID/g, I: 0.17 % ID/g, III: 1.19 % ID/g)

These data points were gathered from ChEMBL document CHEMBL1139476.
